meta.source: PubChem BioAssay AID1851

Molecular target: Cytochrome P450 3A4 (Homo sapiens)
Experiment: Cytochrome panel assay with activity outcomes
Conditions: recombinant CYP, pro-luciferin dealkylation, luminescence, p450-cyp3a4; series mostly up to 57.1 µM
About 5,100 (32%) of roughly 16,000 compounds were called active. Another 25% or so got no clear call; they are omitted. The call rests on the fitted dose curve; in most records, active means well fitted curve in the direction sought with a large enough effect; inconclusive means small, poorly fitted or top-dose-only effect, or effect the other way; inactive means no such curve, though single readings can be large or run the other way. Some of the results follow.
Classes used: label 1 (active), label 0 (inactive)

# compound, discrete label
rows = [
    ("O=C(Oc1ccc2ccccc2c1Br)N1CCCCCC1", "label 1"),
    ("Cc1ccc(OC(=O)N2CCOCC2)cc1", "label 0"),
    ("C=CCn1c(SCC(=O)N2CCc3ccccc3C2)nc2ccccc2c1=O", "label 1"),
    ("C=CC[C@@H]1C=C[C@H](O/N=C(\\C)CCN2CCCc3nc(C)c(C)cc32)[C@H](CO)O1", "label 1"),
    ("CC(=O)C1=NOC(CNC(=O)c2c(-c3ccccc3Cl)noc2C)C1 (centres undefined)", "label 1"),
    ("CC(=O)c1c(C(C)=O)c(C)n(NC(=O)c2ccccc2Cl)c1C", "label 0"),
    ("COc1ccc(N(C(=O)Cn2nnc3ccccc32)C2(C(=O)NC3CCCC3)CCCCC2)cc1", "label 1"),
    ("COc1ccc(C(=O)NC(=S)NC(C)C)cc1Br", "label 0"),
    ("Cc1ccc(Nc2ccc(-n3ccnc3)nn2)cc1C", "label 1"),
    ("CCCNC1CCS(=O)(=O)C1 (centres undefined)", "label 0"),
    ("Cc1cccc(Cn2cnc3c(NS(C)(=O)=O)c(C)c(C)cc32)c1", "label 1"),
    ("O=C(Cn1c(SCC(=O)N2CCc3ccccc3C2)nc2ccccc21)NC1CCCC1", "label 1"),
    ("COc1ccc(NC(=O)C(c2ccc(OC)cc2)N(C)C(=O)CNC(C)=O)cc1 (centres undefined)", "label 0"),
    ("O=C(CN1C(=O)c2ccccc2S1(=O)=O)Nc1ccccc1", "label 0"),
    ("Cc1cc2c(ncn2Cc2ccccc2)c([N+](=O)[O-])c1C", "label 0"),
    ("CC(C)(C)NC(=O)NC(=O)CSc1nnc2ccccn12", "label 0"),
    ("CCn1c(Cc2ccccc2)nnc1SCC(=O)NC(C)(C)C", "label 1"),
    ("CC(C)(C)c1cc(C(=O)O)c(CN2CCCCC2)o1", "label 0"),
    ("Cc1ccnc(NCn2nnc3ccccc32)c1", "label 0"),
    ("Cc1onc(-c2ccccc2Cl)c1C(=O)NCC(=O)O", "label 0"),
    ("COc1n[nH]c2nncnc12", "label 0"),
    ("COc1ccc(Oc2ncc3nc(-c4cc(F)cc(F)c4)c(=O)n(C)c3n2)cc1", "label 1"),
    ("Cc1noc(C)c1C(=O)N1CCC2(CCN(C(=O)NC(C)C)CC2)CC1", "label 0"),
    ("COc1cccc(Nc2ncc3nc(-c4ccc(F)cc4)c(=O)n(C)c3n2)c1", "label 0"),
]
